Values were extracted from patent US7700741B2.

# TEST_SYSTEM: anti-DiAcSpm monoclonal antibody
# ASSAY_NAME: Kit competitive ELISA with solid-phased AcSpm-HMC-peptide, crossreactivities of structure analogs
# Format: binding, mouse
# EXPERIMENTAL_CONTEXT: 15 ng/ml antibody, 0.07 μg/ml solid-phased antigen
Mark Criterion met only when KiDiAcSpm/Ki"S" (%) . . . (1) stays strictly below 0.0008%. Values equal to the cut-off are Criterion not met.

Problem: Threshold test, KiDiAcSpm/Ki"S" (%) . . . (1) < 0.0008%: CC(=O)NCCCCNCCCN [N8-AcSpd, N^8-acetylspermidine]
Solution: Criterion met

Problem: is_below(KiDiAcSpm/Ki"S" (%) . . . (1), 0.0008%) for CC(=O)NCCCNCCCCNCCCNC(C)=O [DiAcSpm, N^1,N^12-diacetylspermine] ?
Solution: Criterion not met

Problem: A record lists CC(=O)NCCCCN [AcPut] . Is its KiDiAcSpm/Ki"S" (%) . . . (1) below 0.0008%?
Solution: Criterion met

Problem: I'd appreciate it if you could check whether CC(=O)NCCCNCCCCN [N1-AcSpd, N^1-acetylspermidine] has KiDiAcSpm/Ki"S" (%) . . . (1) smaller than 0.0008%.
Solution: Criterion not met

Problem: Report whether reported KiDiAcSpm/Ki"S" (%) . . . (1) is lower than 0.0008% (strictly) for CC(=O)NCCCNCCCCNCCCN [AcSpm, N^1-acetylspermine]
Solution: Criterion not met
